# ASSAY COMMENT: Glucosepane pKa study (UV pH titration)

COMPOUND | pKa
N[C@@H](CCCCN1C[C@@H](O)[C@@H](O)C[C@@H]2N=C(NCCC[C@H](N)C(=O)O)N=C21)C(=O)O (stereo in doubt) [Compound 5, Glucosepane Tris-Trifluoroacetate] | ~12

Just for reference, patent US10526339B2 is where these values come from.
